- ASSAYED TARGET: JAK1 (Homo sapiens)
- Construct: purchased Invitrogen
- Sequence (P23458 whole entry): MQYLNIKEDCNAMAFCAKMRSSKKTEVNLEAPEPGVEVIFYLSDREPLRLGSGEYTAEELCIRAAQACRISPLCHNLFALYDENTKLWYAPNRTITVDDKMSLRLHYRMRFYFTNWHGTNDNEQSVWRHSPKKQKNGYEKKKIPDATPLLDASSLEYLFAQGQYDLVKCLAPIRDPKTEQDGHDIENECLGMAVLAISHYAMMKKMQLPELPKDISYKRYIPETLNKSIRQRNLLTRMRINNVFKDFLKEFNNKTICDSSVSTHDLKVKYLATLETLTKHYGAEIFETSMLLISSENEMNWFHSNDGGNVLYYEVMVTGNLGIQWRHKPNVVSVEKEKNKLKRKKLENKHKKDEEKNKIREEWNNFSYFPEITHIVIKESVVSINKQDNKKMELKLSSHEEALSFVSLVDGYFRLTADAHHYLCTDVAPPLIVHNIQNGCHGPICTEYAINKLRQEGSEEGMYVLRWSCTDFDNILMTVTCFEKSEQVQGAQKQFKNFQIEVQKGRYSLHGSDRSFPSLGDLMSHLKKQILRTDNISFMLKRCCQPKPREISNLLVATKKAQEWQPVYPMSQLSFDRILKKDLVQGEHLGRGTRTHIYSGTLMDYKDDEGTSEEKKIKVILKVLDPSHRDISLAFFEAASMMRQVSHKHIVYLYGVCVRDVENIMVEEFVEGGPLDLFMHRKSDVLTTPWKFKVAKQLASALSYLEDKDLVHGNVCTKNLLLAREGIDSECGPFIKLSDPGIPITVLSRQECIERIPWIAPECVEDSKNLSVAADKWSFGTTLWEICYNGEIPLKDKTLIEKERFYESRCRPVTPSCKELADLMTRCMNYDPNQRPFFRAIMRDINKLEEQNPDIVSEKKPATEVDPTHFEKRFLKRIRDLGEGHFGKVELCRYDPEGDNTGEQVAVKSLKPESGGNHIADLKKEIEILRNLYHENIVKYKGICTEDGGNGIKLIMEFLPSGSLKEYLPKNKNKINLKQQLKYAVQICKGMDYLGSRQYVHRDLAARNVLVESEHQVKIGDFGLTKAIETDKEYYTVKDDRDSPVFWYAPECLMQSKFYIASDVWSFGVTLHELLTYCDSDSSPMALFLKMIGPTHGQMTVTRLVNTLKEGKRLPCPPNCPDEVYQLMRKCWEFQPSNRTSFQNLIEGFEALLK
- PROCEDURE DETAILS: JAK1 enzyme inhibition test (LANCE method)
- Assay type: biochemical
- DETAILS: 1 μM test compound; read-out: JAK1 enzyme inhibitory activity (%, 1 μM)
EXPERIMENTAL ENDPOINT: inhibition at 1 µM (%)

* CC(C)C(C)n1cc(-c2cc(C(C)(C)O)n(C)n2)c2[nH]nc(N)c2c1=O (stereo not shown) | 97
* CC(C)[C@H](C)n1cc(-c2cc(N(C)C(C)C)n(C)n2)c2[nH]nc(N)c2c1=O | 96
* CN1CCCN(c2cc(-c3cn(C(C4CC4)C4CC4)c(=O)c4c(N)n[nH]c34)nn2C)CC1 | 98
* CC(C)[C@H](C)n1cc(-c2cc(N3CCN(S(=O)(=O)C4CC4)CC3)n(C)n2)c2[nH]nc(N)c2c1=O | 97
* COC1(c2cc(-c3cn([C@@H](C)C4CC4)c(=O)c4c(N)n[nH]c34)nn2C)CN(C(=O)C(C)C)C1 | 97
* CC1CCCCC1n1cc(-c2cc(C(C)(C)O)n(C)n2)c2[nH]nc(N)c2c1=O (racemic) [Example 116] | 101
* CC(C)[C@H](C)n1cc(-c2cc(C(=O)N(C)C3CCOCC3)n(C)n2)c2[nH]nc(N)c2c1=O | 95
* CC1CCCCC1n1cc(-c2cc(C(C)(C)O)n(C)n2)c2[nH]nc(N)c2c1=O (stereo not shown) [Example 117] | 85
* Cn1nc(-c2cn(C(C3CC3)C3CC3)c(=O)c3c(N)n[nH]c23)cc1N1C2CCC1COC2 | 99
* COC[C@H]1CCCN1c1cc(-c2cn([C@@H](C)C(C)C)c(=O)c3c(N)n[nH]c23)nn1C | 96
* Cn1nc(-c2cn(C(C3CC3)C3CC3)c(=O)c3c(N)n[nH]c23)cc1N1CCS(=O)(=O)CC1 | 98
* CNC(=O)c1ccc(-c2cc(-c3cn([C@@H](C)C(C)C)c(=O)c4c(N)n[nH]c34)nn2C)cc1 | 99
* CC(C)[C@H](C)n1cc(-c2cc(N3CCOC(C)(C)C3)n(C)n2)c2[nH]nc(N)c2c1=O | 97
* CO[C@@H]1CCN(c2cc(-c3cn([C@@H](C)C(C)C)c(=O)c4c(N)n[nH]c34)nn2C)C1 | 96
* CC(C)[C@H](C)n1cc(-c2cc(N3CC[C@@H](O)C3)n(C)n2)c2[nH]nc(N)c2c1=O | 97
* CO[C@H]1CCN(c2cc(-c3cn(C(C4CC4)C4CC4)c(=O)c4c(N)n[nH]c34)nn2C)C1 | 100
